Molecular target: IGHM (immunoglobulin heavy mu chain), on Ramos cells (UniProt P01871 P01871:1-474)
Sequence (P01871 whole entry, one chain of several): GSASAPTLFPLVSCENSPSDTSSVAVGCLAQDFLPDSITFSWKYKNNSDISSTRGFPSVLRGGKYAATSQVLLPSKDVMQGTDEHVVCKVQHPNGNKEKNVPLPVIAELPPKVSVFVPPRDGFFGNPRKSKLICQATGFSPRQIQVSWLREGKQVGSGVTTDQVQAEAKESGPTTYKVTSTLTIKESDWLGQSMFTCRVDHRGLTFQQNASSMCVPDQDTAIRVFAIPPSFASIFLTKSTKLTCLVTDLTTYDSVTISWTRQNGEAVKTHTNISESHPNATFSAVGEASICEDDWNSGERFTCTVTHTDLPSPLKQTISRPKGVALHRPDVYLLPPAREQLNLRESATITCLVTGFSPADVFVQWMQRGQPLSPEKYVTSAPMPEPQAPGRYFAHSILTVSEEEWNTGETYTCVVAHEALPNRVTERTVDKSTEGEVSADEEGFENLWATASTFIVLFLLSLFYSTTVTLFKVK
Test: flow; free TDO5 on Ramos cells; compared with micelle; elsewhere quoted as 74 nM (p179, CITED)
Conditions: tags: endogenous on Ramos cells (ATCC CRL-1596); chain copies: 2; label: FITC
pKd: −log10 of the molar value.
endpoint: pKd

• AACACCGGGAGGATAGTTCGGTGGCTGTTCAGGGTCTCCTCCCGGTGA (ssDNA) [TDO5] = 7.06
